The reported measurements were obtained from patent US20230051847A1.

biological target: T1, RAS Q61WT[55-64] pHLA-A1 (human); test: flow cytometry: scFv phage supernatant on peptide-pulsed SigM5 cells (HLA-A1+), median fluorescence intensity
T1 construct: also called Q61WT pHLA-A1; H/K/N RAS WT(55-64) peptide on HLA-A1

binder	binding result
H/K/N RAS Q61L_A1_cl1 (scFv) scFv: DIQMTQSPSSLSASVGDRVTITCRASQDVNTAVAWYQQKPGKAPKLLIYSASFLYSGVPSRFSGSRSGTDFTLTISSLQPEDFATYYCQQASRQPYTFGQGTKVEIKRTGGGSGGGGSGGGASEVQLVESGGGLVQPGGSLRLSCAASGFNFSESGMHWVRQAPGKGLEWVAHFSGDSGYTYYADSVKGRFTISADTSKNTAYLQMNSLRAEDTAVYYCSRYMYYSGYFDYWGQGTLVTVSS	no binding
H/K/N RAS Q61L_A1_cl8 (scFv) scFv: DIQMTQSPSSLSASVGDRVTITCRASQDVNTAVAWYQQKPGKAPKLLIYSASFLYSGVPSRFSGSRSGTDFTLTISSLQPEDFATYYCQQSYSSGPVTFGQGTKVEIKRTGGGSGGGGSGGGASEVQLVESGGGLVQPGGSLRLSCAASGFNFSYGGIHWVRQAPGKGLEWVAMIYPLTGYTNYADSVKGRFTISADTSKNTAYLQMNSLRAEDTAVYYCSRDYYYSVDVWGQGTLVTVSS	no binding
H/K/N RAS Q61L_A1_cl11 (scFv) scFv: DIQMTQSPSSLSASVGDRVTITCRASQDVNTAVAWYQQKPGKAPKLLIYSASFLYSGVPSRFSGSRSGTDFTLTISSLQPEDFATYYCQQYDRPITFGQGTKVEIKRTGGGSGGGGSGGGASEVQLVESGGGLVQPGGSLRLSCAASGFNIYYEAMHWVRQAPGKGLEWVAQIYPWNDYTYYADSVKGRFTISADTSKNTAYLQMNSLRAEDTAVYYCSRNYYAATMDYWGQGTLVTVSS	no binding
